Source listed as patent US10780090B2.

molecular target: recombinant human SAE enzyme (Homo sapiens (Human), UniProt Q9UBT2); assay: SAE HTRF enzyme assay; type: biochemical; conditions: Concentration 0.111 μM; read-out: Percent Inhibition
Sequence (Q9UBT2 whole entry): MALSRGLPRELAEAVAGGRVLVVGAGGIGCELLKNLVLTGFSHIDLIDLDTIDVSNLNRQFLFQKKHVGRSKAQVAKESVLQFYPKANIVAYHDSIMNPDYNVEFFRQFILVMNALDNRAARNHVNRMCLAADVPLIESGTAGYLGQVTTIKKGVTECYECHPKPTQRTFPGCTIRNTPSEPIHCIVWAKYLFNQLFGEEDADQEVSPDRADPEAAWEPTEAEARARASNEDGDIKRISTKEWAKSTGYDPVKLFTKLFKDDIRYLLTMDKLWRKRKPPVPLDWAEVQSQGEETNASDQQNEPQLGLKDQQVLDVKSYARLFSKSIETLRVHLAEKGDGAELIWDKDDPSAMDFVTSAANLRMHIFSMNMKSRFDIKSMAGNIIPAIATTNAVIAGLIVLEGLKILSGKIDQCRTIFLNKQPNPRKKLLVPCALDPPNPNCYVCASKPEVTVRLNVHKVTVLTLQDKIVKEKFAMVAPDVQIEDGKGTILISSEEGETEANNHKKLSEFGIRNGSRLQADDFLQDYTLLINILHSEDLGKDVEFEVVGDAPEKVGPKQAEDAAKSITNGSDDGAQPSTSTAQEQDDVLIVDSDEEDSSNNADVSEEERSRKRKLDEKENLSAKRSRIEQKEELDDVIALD
Sequence (Q9UBE0 whole entry partner): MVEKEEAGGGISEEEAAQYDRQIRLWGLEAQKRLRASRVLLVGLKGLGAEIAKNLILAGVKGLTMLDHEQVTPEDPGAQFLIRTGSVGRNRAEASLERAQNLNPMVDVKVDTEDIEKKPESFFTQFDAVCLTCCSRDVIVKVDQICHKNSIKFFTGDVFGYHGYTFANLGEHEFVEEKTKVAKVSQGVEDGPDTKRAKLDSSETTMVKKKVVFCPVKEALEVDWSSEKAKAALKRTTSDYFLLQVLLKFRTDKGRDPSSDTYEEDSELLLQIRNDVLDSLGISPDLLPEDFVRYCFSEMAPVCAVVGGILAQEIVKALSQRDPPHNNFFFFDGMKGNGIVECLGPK
Reported inhibition at 0.111 µM is given for each of the following compounds.
Express the result in % but write the number alone.

Below are worked cases with known answers.
> print(dat)
                                smiles.code                  metric  numeric.readout
1  Cc1nn(Cc2csc(C(=O)c3cncnc3N[C@@H]3C[C@H](COS(N)(=O)=O)[C@@H](O)C3)c2)c2cnccc12  inhibition at 0.111 µM               92
2  Cc1sc(C(=O)c2cncnc2N[C@@H]2C[C@H](COS(N)(=O)=O)[C@@H](O)C2)cc1Cn1cc(Br)cn1  inhibition at 0.111 µM               98
3  CC(C)(O)c1ccc(C(=O)c2cncnc2N[C@@H]2C[C@H](COS(N)(=O)=O)[C@@H](O)[C@H]2O)s1  inhibition at 0.111 µM               60

Now examine the next entry.
Ask: Which inhibition at 0.111 µM is reported for this compound? NS(=O)(=O)OC[C@H]1C[C@@H](Nc2ncncc2C(=O)c2cc(Cn3ccc4ccc(Cl)cc43)cs2)C[C@@H]1O
Reply: 97

---

Reported Percent Inhibition is given for each of the following molecules.
molecular target: recombinant human SAE enzyme (Homo sapiens (Human)); experiment: SAE HTRF enzyme assay; assay type: biochemical; conditions: SAE inhibition at compound concentration 0.111 μM
Enter the number, and then the unit.

molecule	Percent Inhibition
NS(=O)(=O)OC[C@H]1C[C@@H](Nc2ncncc2C(=O)c2cc([C@@H]3SCCc4ccc(Cl)cc43)cs2)C[C@@H]1O.NS(=O)(=O)OC[C@H]1C[C@@H](Nc2ncncc2C(=O)c2cc([C@H]3SCCc4ccc(Cl)cc43)cs2)C[C@@H]1O (mixture of isomers) [I-320]	92%

Ask: Notebook: pull reported Percent Inhibition for recombinant human SAE enzyme (Homo sapiens (Human)), entry NS(=O)(=O)OC[C@H]1C[C@@H](Nc2ncncc2C(=O)c2ccc([C@@H]3OCCCc4ccc(Cl)cc43)s2)C[C@@H]1O (single isomer, unassigned) [I-343a]
Reply: 57%

Ask: Then what about the molecule CN1CCc2ccc(Cl)cc2[C@@H]1c1cc(C(=O)c2cncnc2N[C@@H]2C[C@H](COS(N)(=O)=O)[C@@H](O)C2)sc1Cl (single isomer, unassigned) [I-311b] ?
Reply: 96%

Ask: Then what about the molecule C[C@@]1(c2csc(C(=O)c3cncnc3N[C@@H]3C[C@H](COS(N)(=O)=O)[C@@H](O)C3)c2)OCCc2ccc(Cl)cc21 (mixture of isomers) [I-317] ?
Reply: 97%

Ask: Then what about the molecule NS(=O)(=O)OC[C@H]1C[C@@H](Nc2ncncc2C(=O)c2cc([C@@H]3OCCCc4ccc(Cl)cc43)cs2)C[C@@H]1O (single isomer, unassigned) [I-314b] ?
Reply: 98%

Ask: Then what about the molecule NS(=O)(=O)OC[C@H]1C[C@@H](Nc2ncncc2C(=O)c2cc([C@@H]3OCC(F)(F)c4ccccc43)cs2)C[C@@H]1O (single isomer, unassigned) [I-293a] ?
Reply: 57%

Ask: Then what about the molecule NS(=O)(=O)OC[C@H]1C[C@@H](Nc2ncncc2C(=O)c2cc([C@@H]3CCc4ccc(Cl)cc43)cs2)C[C@@H]1O (single isomer, unassigned) [I-349b] ?
Reply: 58%

Ask: Then what about the molecule Cc1sc(C(=O)c2cncnc2N[C@@H]2C[C@H](COS(N)(=O)=O)[C@@H](O)C2)cc1[C@@H]1OCCc2cccnc21 (single isomer, unassigned) [I-285a] ?
Reply: 101%

Ask: Then what about the molecule Cc1sc(C(=O)c2cncnc2N[C@@H]2C[C@H](COS(N)(=O)=O)[C@@H](O)C2)cc1[C@H]1OCCc2ccc(N3CCCC3)nc21 (mixture of isomers) [I-348] ?
Reply: 97%

Ask: Then what about the molecule NS(=O)(=O)OC[C@H]1C[C@@H](Nc2ncncc2C(=O)c2cc([C@@H]3OC(=O)c4ccc(Cl)cc43)c(Cl)s2)C[C@@H]1O (mixture of isomers) [I-327] ?
Reply: 51%

---

target: recombinant human SAE enzyme (Homo sapiens (Human), UniProt Q9UBT2); assay: SAE HTRF enzyme assay; type: biochemical; conditions: Concentration 0.111 μM; read-out: Percent Inhibition
Reported inhibition at 0.111 µM is given for each of the following compounds.
Express the result in % but write the number alone.

Below are worked cases with known answers.
> print(dat)
                                smiles.code  numeric.readout
1  NS(=O)(=O)OC[C@H]1C[C@@H](Nc2ncncc2C(=O)c2cc(COc3ccccc3Cl)cs2)C[C@@H]1O               95
2  NS(=O)(=O)OC[C@H]1C[C@@H](Nc2ncncc2C(=O)c2cc(CN3CC=CC3)cs2)C[C@@H]1O               32

Ask: Which inhibition at 0.111 µM is reported for this compound? NS(=O)(=O)OC[C@H]1C[C@@H](Nc2ncncc2C(=O)c2cc(Cc3ccccc3)c(Cl)s2)C[C@@H]1O
Reply: 97

Ask: Then what about the compound NS(=O)(=O)OC[C@H]1C[C@@H](Nc2ncncc2C(=O)c2cc(Cc3cccc(Cl)c3)c(CC3CCOCC3)s2)C[C@@H]1O ?
Reply: 98

---

target: recombinant human SAE enzyme (Homo sapiens (Human)); assay: SAE HTRF enzyme assay; assay type: biochemical; conditions: SAE inhibition; class symbols, legend in nM
metric: IC50

Below are worked cases with known answers.
molecule	system	IC50
CN1CCc2ccc(Cl)cc2[C@@H]1c1csc(C(=O)c2cncnc2N[C@@H]2C[C@H](COS(N)(=O)=O)[C@@H](O)C2)c1 (single isomer, unassigned) [I-307a]	recombinant human SAE enzyme (Homo sapiens (Human))	100 to 1000 nM
Cc1sc(C(=O)c2cncnc2N[C@@H]2C[C@H](COS(N)(=O)=O)[C@@H](OC(=O)c3cccc(COP(=O)(O)O)c3)C2)cc1[C@@H]1OCCc2ccc(Cl)cc21	recombinant human SAE enzyme (Homo sapiens (Human))	100 to 1000 nM

Now examine the next entry.
Ask: Which IC50 is reported for this molecule? NS(=O)(=O)OC[C@H]1C[C@@H](Nc2ncncc2C(=O)c2cc([C@@H]3NCCc4ccccc43)cs2)C[C@@H]1O (single isomer, unassigned) [I-283a]
Reply: < 10 nM

---

Reported Percent Inhibition is given for each of the following molecules.
target: recombinant human SAE enzyme (Homo sapiens (Human), UniProt Q9UBT2); assay: SAE HTRF enzyme assay; format: biochemical; details: SAE inhibition at compound concentration 0.111 μM
Express the result in % but write the number alone.

Below are worked cases with known answers.
molecule	unit_label	Percent Inhibition
NS(=O)(=O)OC[C@H]1C[C@@H](Nc2ncncc2C(=O)c2cc([C@@H]3OCCc4ccc(F)cc43)c(Cl)s2)C[C@@H]1O (single isomer, unassigned) [I-294a]	%	84
CN1Cc2cc(Cl)ccc2[C@@H]1c1csc(C(=O)c2cncnc2N[C@@H]2C[C@H](COS(N)(=O)=O)[C@@H](O)C2)c1 (mixture of isomers) [I-322]	%	92
C[C@@]1(c2csc(C(=O)c3cncnc3N[C@@H]3C[C@H](COS(N)(=O)=O)[C@@H](O)C3)c2)NCCc2ccccc21.C[C@]1(c2csc(C(=O)c3cncnc3N[C@@H]3C[C@H](COS(N)(=O)=O)[C@@H](O)C3)c2)NCCc2ccccc21 (mixture of isomers) [I-318]	%	95

Ask: Which Percent Inhibition is reported for this molecule? Cc1ccc2c(n1)C(c1cc(C(=O)c3cncnc3N[C@@H]3C[C@H](COS(N)(=O)=O)[C@@H](O)C3)sc1C)OCC2 (single isomer, unassigned) [I-291b]
Reply: 99

Ask: Then what about the molecule Cc1sc(C(=O)c2cncnc2N[C@@H]2C[C@H](COS(N)(=O)=O)[C@@H](O)C2)cc1C1OCCc2oc(Cl)cc21 (single isomer, unassigned) [I-298a] ?
Reply: 34

Ask: Then what about the molecule Cc1sc(C(=O)c2cncnc2N[C@@H]2C[C@H](COS(N)(=O)=O)[C@@H](O)C2)nc1[C@H](O)c1cccc(Cl)c1 (single isomer, unassigned) [I-355b] ?
Reply: 71

Ask: Then what about the molecule CN1Cc2ccc(Cl)cc2[C@@H]1c1cc(C(=O)c2cncnc2N[C@@H]2C[C@H](COS(N)(=O)=O)[C@@H](O)C2)sc1Cl (single isomer, unassigned) [I-284a] ?
Reply: 49

Ask: Then what about the molecule Cc1nc2n(c1C)CCO[C@@H]2c1cc(C(=O)c2cncnc2N[C@@H]2C[C@H](COS(N)(=O)=O)[C@@H](O)C2)sc1C (mixture of isomers) [I-356] ?
Reply: 97

Ask: Then what about the molecule NS(=O)(=O)OC[C@H]1C[C@@H](Nc2ncncc2C(=O)c2cc([C@@H]3OCCc4ccc(F)cc43)c(Cl)s2)C[C@@H]1O (single isomer, unassigned) [I-294] ?
Reply: 99

Ask: Then what about the molecule Cc1sc(C(=O)c2cncnc2N[C@@H]2C[C@H](COS(N)(=O)=O)[C@@H](O)C2)cc1C1OCCc2ccc(C(F)(F)F)nc21 (single isomer, unassigned) [I-297b] ?
Reply: 99
